ASSAYED_TARGET: human α7 nicotinic acetylcholine receptor (HEK cell line stably expressing human RIC-3 and human α7) (Homo sapiens, UniProt P36544)
Construct: host or cells: HEK cell line (PrecisION hnAChR α7/RIC-3)
Sequence (P36544 23-502): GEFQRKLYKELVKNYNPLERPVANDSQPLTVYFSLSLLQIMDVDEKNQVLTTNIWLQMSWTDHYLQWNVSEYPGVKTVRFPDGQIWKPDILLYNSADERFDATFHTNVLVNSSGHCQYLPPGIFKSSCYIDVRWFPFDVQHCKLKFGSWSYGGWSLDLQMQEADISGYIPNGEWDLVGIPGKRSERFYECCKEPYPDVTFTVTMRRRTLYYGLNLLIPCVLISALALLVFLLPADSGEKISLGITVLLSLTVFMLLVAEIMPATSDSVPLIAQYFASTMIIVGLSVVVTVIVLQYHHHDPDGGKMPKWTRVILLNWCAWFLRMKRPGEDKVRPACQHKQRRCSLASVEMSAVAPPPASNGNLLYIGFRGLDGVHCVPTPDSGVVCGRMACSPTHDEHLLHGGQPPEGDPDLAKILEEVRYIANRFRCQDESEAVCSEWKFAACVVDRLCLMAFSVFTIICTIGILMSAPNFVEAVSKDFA
MEASUREMENT_NOTES: Automated patch-clamp electrophysiology functional assay (Assay A), IonFlux HT, whole-cell population patch
Format: cell-based
RUN_PARAMETERS: HEK cells expressing human α7/RIC-3; test compound with or without 40 μM acetylcholine; holding potential −60 mV; room temperature; read-out: α7 nAChR Potency
pEC50: −log10 of the molar value.
Here, each record is paired with measured pEC50 data.

Examples from the recorded data:
Cc1ncccc1-c1noc(C2C(F)(F)C23CCN(S(N)(=O)=O)CC3)n1 (centres unmarked) | 5.30 to 6.30
NS(=O)(=O)N1CCC2(CC2c2nc(-c3cccc(OCC(F)(F)F)c3)no2)C(F)(F)C1 (centres unmarked) | 5.30 to 6.30
Cc1ccccc1-c1noc([C@H]2C(F)(F)C23CCN(S(N)(=O)=O)CC3)n1 | 5.30 to 6.30

Form field pEC50, entry NS(=O)(=O)N1CCC2(CC1)[C@H](c1coc(-c3ccnc(OC(F)F)c3)n1)C2(F)F : 6.30 to 7.00

Per the records, this compound ( COc1ccc(Cl)cc1-c1noc(C2CC23CCN(S(=O)(=O)c2c(O)no[n+]2C)CC3)n1 (racemic) ) has pEC50 equal to 5.30 to 6.30

pEC50 measured on NS(=O)(=O)N1CCC2(CC1)C[C@H]2c1nnc(-c2cccc(C(F)(F)F)c2)o1 = 5.30 to 6.30

The recorded pEC50 for NS(=O)(=O)N1CCC2(CC1)[C@H](c1noc(-c3c(C(F)(F)F)cnn3C3CC3)n1)C2(F)F is > 7.00

compound Cc1ccc(C)c(-c2nc([C@@H]3CC34CCN(S(N)(=O)=O)CC4)no2)n1 , pEC50 observed: 5.30 to 6.30
